Target of assay: Signal transducer and activator of transcription 3 (Homo sapiens)
Sequence (P40763 whole entry): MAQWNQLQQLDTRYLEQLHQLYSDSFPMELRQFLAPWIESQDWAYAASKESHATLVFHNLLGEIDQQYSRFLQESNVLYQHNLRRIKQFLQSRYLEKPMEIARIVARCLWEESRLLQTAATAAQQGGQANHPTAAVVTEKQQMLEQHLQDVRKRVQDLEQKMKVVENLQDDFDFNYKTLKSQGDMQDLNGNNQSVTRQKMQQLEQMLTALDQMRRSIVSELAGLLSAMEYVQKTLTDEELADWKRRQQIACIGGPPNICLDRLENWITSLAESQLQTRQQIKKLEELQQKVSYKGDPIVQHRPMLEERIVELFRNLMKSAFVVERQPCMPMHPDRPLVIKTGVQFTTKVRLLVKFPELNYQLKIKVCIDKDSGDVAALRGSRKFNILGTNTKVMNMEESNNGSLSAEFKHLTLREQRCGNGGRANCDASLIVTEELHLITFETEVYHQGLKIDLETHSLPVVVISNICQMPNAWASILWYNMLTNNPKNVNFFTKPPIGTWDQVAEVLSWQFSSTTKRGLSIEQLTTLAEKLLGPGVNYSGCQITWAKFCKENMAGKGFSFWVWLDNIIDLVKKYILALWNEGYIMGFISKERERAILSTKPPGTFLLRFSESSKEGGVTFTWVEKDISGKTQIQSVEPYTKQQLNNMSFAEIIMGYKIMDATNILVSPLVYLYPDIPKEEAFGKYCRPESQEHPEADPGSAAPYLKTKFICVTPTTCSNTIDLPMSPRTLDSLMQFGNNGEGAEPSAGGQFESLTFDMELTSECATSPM
Protocol description: Displacement of FAM-labeled 5-GpYLPQTV-NH2 from recombinant GST-tagged STAT3 (unknown origin) preincubated for 30 mins followed by FAM-labeled 5-GpYLPQTV-NH2 addition and measured after 30 mins by fluorescence assay
Consider the following compounds; for each one, report its IC50.
Record the result as a number with its unit.

// IC50 value for C=CCn1c(SCC(=O)Nc2ccc(/C(C)=N\O)cc2)nnc1-c1cc(-c2ccccc2)nc2ccccc12 : 320 nM

Now, please, on to the next compound.
// IC50 value for C=CCn1c(SCC(=O)Nc2ccc(/C(C)=N\O)cc2)nnc1-c1cc(-c2ccc(Cl)cc2)nc2ccccc12 : 250 nM
